- System: test plant species in Direct Seeded Rice
- assayRemarks: Postemergence herbicidal activity in direct seeded rice (Table 13)
- Assay type: in vivo
- measurementContext: LEFSS: sprangletop (Leptochloa chinensis, Leptochloa dubia); probit analysis
measurementName: GR50 LEFSS

{"compoundStructure": "Nc1c(Cl)c(C(=O)O)nc(-c2ccc(C(F)(F)F)c(F)c2)c1Cl", "GR50 LEFSS": "44 g ai/ha"}
{"compoundStructure": "COC(=O)c1nc(-c2ccc(Cl)c(F)c2)c(F)c(N)c1Cl", "GR50 LEFSS": "8 g ai/ha"}
{"compoundStructure": "Nc1cc(-c2ccc(I)cc2F)nc(C(=O)O)c1Cl", "GR50 LEFSS": "7 g ai/ha"}
{"compoundStructure": "COC(=O)c1nc(-c2ccc(Br)cc2)c(Cl)c(N)c1Cl", "GR50 LEFSS": ">70 g ai/ha"}

// query Can you share its GR50 LEFSS? I mean this compound: COC(=O)c1nc(-c2ccc(C(F)(F)F)c(F)c2)c(F)c(N)c1Cl
// result 24 g ai/ha

* * *

- Tested on: Key Grass and Sedge Weeds as well as Grass Crops
- assayRemarks: Post-emergent Test II herbicidal activity (Table 6)
- Format: in vivo
- measurementContext: post-emergence, 336 h, ECHCG: barnyardgrass (Echinochloa crus-galli), 70 g ai/ha, read-out: Visual Growth Reduction (%) 14 Days After Application, ECHCG
measurementName: pest or weed control at 70 g/ha

// query Could you share which pest or weed control at 70 g/ha value was measured for C#Cc1ccc(-c2nc(C(=O)O)c(Cl)c(N)c2F)cc1F ?
// result 85 to 94%

// query State the recorded pest or weed control at 70 g/ha for this entry: Nc1c(F)c(-c2ccc(I)c(F)c2)nc(C(=O)O)c1Cl
// result 95 to 100%

// query Give its pest or weed control at 70 g/ha value. Item: COC(=O)c1nc(-c2ccc(Br)c(F)c2)c(F)c(N)c1Cl
// result 85 to 94%

// query Which value of pest or weed control at 70 g/ha has been reported for COC(=O)c1nc(-c2ccc(Br)c(F)c2F)nc(N)c1OC in the records?
// result 85 to 94%

// query May I ask what pest or weed control at 70 g/ha has been recorded for COC(=O)c1nc(-c2ccc(I)cc2)cc(N)c1Cl ?
// result 60 to 74%

// query Given the entry Nc1c(F)c(-c2ccc(Br)cc2F)nc(C(=O)O)c1Cl , report its measured pest or weed control at 70 g/ha.
// result 85 to 94%

// query # query: pest or weed control at 70 g/ha of entry COC(=O)c1nc(-c2ccc([N+](=O)[O-])cc2)c(F)c(N)c1Cl
// result 85 to 94%

* * *

// reported GR80 CYPSS per item
- System: test plant species in Direct Seeded Rice
- assayRemarks: Postemergence herbicidal activity in direct seeded rice (Table 13)
- Assay type: in vivo
- measurementContext: CYPSS: sedge (Cyperus difformis, esculentus, iria); probit analysis
- Protocol: Seeds or nutlets of the desired test plant species were planted in a soil matrix prepared by mixing a loam soil (43 percent silt, 19 percent clay, and 38 percent sand, with a pH of about 8.1 and an organic matter content of about 1.5 percent) and river sand in an 80 to 20 ratio. […] A weighed amount, determined by the highest rate to be tested, of each test compound was placed in 25 mL glass vials and dissolved in a volume of 97:3 v/v acetone-DMSO to obtain 12× stock solutions. […]

Before answering, review these 3 worked examples.
{"molecule": "Nc1c(F)c(-c2ccc(C(F)(F)F)c(F)c2)nc(C(=O)O)c1Cl [Compound 134]", "testValue": "13 g ai/ha"}
{"molecule": "COC(=O)c1nc(-c2ccc(I)cc2)c(Cl)c(N)c1Cl [Compound 96]", "testValue": "6 g ai/ha"}
{"molecule": "COC(=O)c1nc(-c2ccc(C(F)(F)F)c(F)c2)c(F)c(N)c1Cl [Compound 165]", "testValue": "67 g ai/ha"}

// query Item COC(=O)c1nc(-c2ccc(Br)c(F)c2F)nc(N)c1OC [Compound 122] has what recorded GR80 CYPSS?
// result 1 g ai/ha

// query Which GR80 CYPSS value is on record for COc1c(N)nc(-c2cc(F)c(Br)cc2F)nc1C(=O)O [Compound 11] ?
// result 1 g ai/ha

// query Tell me the measured GR80 CYPSS of Nc1cc(-c2ccc(Br)cc2F)nc(C(=O)O)c1Cl [Compound 74] , please.
// result 10 g ai/ha

// query Reported GR80 CYPSS, molecule COC(=O)c1nc(-c2ccc(Cl)c(F)c2)c(F)c(N)c1Cl [Compound 216] : ____
// result 70 g ai/ha

// query Which GR80 CYPSS is reported for this molecule? COC(=O)c1nc(-c2ccc(C#N)c(F)c2)c(F)c(N)c1Cl [Compound 135]
// result 49 g ai/ha

* * *

Recorded pest or weed control at 70 g/ha, one value per entry.
- System: VERPE: bird's-eye speedwell (veronica persica)
- assayRemarks: Post-emergent Test III, herbicidal activity in wheat and barley
- Assay type: in vivo
- measurementContext: Veronica persica, post-emergence, 504 h; 70 g ai/ha; read-out: Visual Growth Reduction (%) 21 Days After Application VERPE

Take a look at these entries with their results.
{"compoundStructure": "COC(=O)c1nc(-c2ccc(Br)cc2)c(F)c(N)c1Cl", "measurementName": "pest or weed control at 70 g/ha", "testValue": "85 to 94%"}
{"compoundStructure": "Nc1c(F)c(-c2ccc(Cl)c(F)c2)nc(C(=O)O)c1Cl", "measurementName": "pest or weed control at 70 g/ha", "testValue": "60 to 74%"}
{"compoundStructure": "COC(=O)c1nc(-c2ccc(Br)c(F)c2F)cc(N)c1Cl", "measurementName": "pest or weed control at 70 g/ha", "testValue": "30 to 44%"}
{"compoundStructure": "Nc1c(F)c(-c2ccc(I)cc2)nc(C(=O)O)c1Cl", "measurementName": "pest or weed control at 70 g/ha", "testValue": "85 to 94%"}
{"compoundStructure": "COC(=O)c1nc(-c2ccc(Cl)c(F)c2)c(F)c(N)c1Cl", "measurementName": "pest or weed control at 70 g/ha", "testValue": "60 to 74%"}

Please look at the following molecule next.
// query # pest or weed control at 70 g/ha lookup, item Nc1c(F)c(-c2ccc(Br)cc2)nc(C(=O)O)c1Cl
// result 60 to 74%

* * *

- Test system: test plant species in Direct Seeded Rice
- assayRemarks: Postemergence herbicidal activity in direct seeded rice (Table 13)
- Format: in vivo
- measurementContext: CYPSS: sedge (Cyperus difformis, esculentus, iria); probit analysis
Let's look at some molecules and their measured GR50 CYPSS.
All answers are understood in g ai/ha, so give the number only.

Here are 6 molecules together with their reported answers.
{"molecule": "COc1c(N)nc(-c2cc(F)c(Br)cc2F)nc1C(=O)O [Compound 11]", "systemName": "test plant species in Direct Seeded Rice", "testValue": 1}
{"molecule": "COC(=O)c1nc(-c2ccc(Br)cc2)c(Cl)c(N)c1Cl [Compound 47]", "systemName": "test plant species in Direct Seeded Rice", "testValue": 1}
{"molecule": "COc1c(N)nc(-c2ccc(Br)c(F)c2F)nc1C(=O)O [Compound 8]", "systemName": "test plant species in Direct Seeded Rice", "testValue": 1}
{"molecule": "Nc1c(F)c(-c2ccc(C(F)(F)F)c(F)c2)nc(C(=O)O)c1Cl [Compound 134]", "systemName": "test plant species in Direct Seeded Rice", "testValue": 6}
{"molecule": "COC(=O)c1nc(-c2ccc(I)cc2F)cc(N)c1Cl [Compound 159]", "systemName": "test plant species in Direct Seeded Rice", "testValue": 2}
{"molecule": "Nc1c(F)c(-c2ccc(Cl)c(F)c2)nc(C(=O)O)c1Cl [Compound 217]", "systemName": "test plant species in Direct Seeded Rice", "testValue": 5}

Consider the record given below.
// query So what's the measured GR50 CYPSS for this one? COC(=O)c1nc(-c2ccc(C#N)c(F)c2)c(F)c(N)c1Cl [Compound 135]
// result 5

* * *

This listing pairs compounds with measured GR20 ORYSS.
- Tested on: test plant species in Direct Seeded Rice
- assayRemarks: Postemergence herbicidal activity in direct seeded rice (Table 13)
- Format: in vivo
- measurementContext: ORYSS: Oryza sativa (crop); probit analysis
- Method: Seeds or nutlets of the desired test plant species were planted in a soil matrix prepared by mixing a loam soil (43 percent silt, 19 percent clay, and 38 percent sand, with a pH of about 8.1 and an organic matter content of about 1.5 percent) and river sand in an 80 to 20 ratio. […] A weighed amount, determined by the highest rate to be tested, of each test compound was placed in 25 mL glass vials and dissolved in a volume of 97:3 v/v acetone-DMSO to obtain 12× stock solutions. […]
Report the value in g ai/ha with no unit label.

{"compoundStructure": "Nc1c(F)c(-c2ccc(Cl)c(F)c2)nc(C(=O)O)c1Cl", "systemName": "test plant species in Direct Seeded Rice", "GR20 ORYSS (g ai/ha)": 10}

// query Given COC(=O)c1nc(-c2ccc(Br)c(F)c2F)nc(N)c1OC , state its recorded GR20 ORYSS.
// result 70

// query Can you share its GR20 ORYSS? I mean this compound: COc1c(N)nc(-c2cc(F)c(Br)cc2F)nc1C(=O)O
// result 25

// query Look up GR20 ORYSS: Nc1cc(-c2ccc(I)cc2F)nc(C(=O)O)c1Cl
// result 1

// query Would you kindly share the measured GR20 ORYSS for COC(=O)c1nc(-c2ccc(I)cc2)c(Cl)c(N)c1Cl ?
// result 130

// query Value lookup for GR20 ORYSS; key = Nc1c(Cl)c(C(=O)O)nc(-c2ccc(C(F)(F)F)c(F)c2)c1Cl
// result 18

The measured values listed here are drawn from patent US9113629B2.
